Biological target: FAAH (Mus musculus)
Construct: Proteomes (mouse brain membrane fraction or cell lysates); from tissue; host or cells: mouse brain membrane fraction (or cell lysates, not specified)
Sequence (O08914 1-579): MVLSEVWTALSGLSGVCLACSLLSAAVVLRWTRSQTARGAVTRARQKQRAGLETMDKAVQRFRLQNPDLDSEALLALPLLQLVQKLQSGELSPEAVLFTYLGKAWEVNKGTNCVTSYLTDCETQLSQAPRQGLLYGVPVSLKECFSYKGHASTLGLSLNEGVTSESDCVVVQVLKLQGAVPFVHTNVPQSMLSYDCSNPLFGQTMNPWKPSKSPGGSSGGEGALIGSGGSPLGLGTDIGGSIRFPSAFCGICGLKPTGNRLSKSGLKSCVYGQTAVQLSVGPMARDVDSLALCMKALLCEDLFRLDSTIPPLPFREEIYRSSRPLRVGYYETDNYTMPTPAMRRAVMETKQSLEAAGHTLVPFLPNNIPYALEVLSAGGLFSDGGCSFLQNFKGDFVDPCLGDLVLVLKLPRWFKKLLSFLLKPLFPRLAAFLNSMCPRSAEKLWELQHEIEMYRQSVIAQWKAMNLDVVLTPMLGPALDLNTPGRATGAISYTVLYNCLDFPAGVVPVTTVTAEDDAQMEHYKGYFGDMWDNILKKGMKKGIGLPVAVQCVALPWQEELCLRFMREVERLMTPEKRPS
Assay: In vitro competitive activity-based protein profiling (gel-based, FP-Rh or HT-01 probe)
Assay type: biochemical
Details: mouse brain membrane fraction or cell lysates, 30 min preincubation at 37° C.; read-out: Mouse (IC50 value, nM) FAAH
Method: In Vitro Competitive Activity-Based Protein Profiling. Proteomes (mouse brain membrane fraction or cell lysates) (50 μL, 1.0 mg/mL total protein concentration) were preincubated with varying concentrations of inhibitors at 37° C. […] Following gel imaging, serine hydrolase activity was determined by measuring fluorescent intensity of gel bands corresponding to MAGL, ABHD6, FAAH, and PLA2G7 using ImageJ 1.43u software.
Reported IC50 values for the following compounds.

Answer with the recorded IC50 for the compound listed here: CNC(=O)c1cnn(C(=O)N2CCN(Cc3cccc(Oc4ccccc4)c3)CC2)c1 [Example 287] < 100 nM

Answer with the recorded IC50 for the compound listed here: CCN(Cc1cccc(C)c1)C(=O)n1cc(C(F)(F)F)cn1 [Example 247] 100 to 1000 nM

Answer with the recorded IC50 for the compound listed here: O=C(N1CCN(c2ccc(N3CCCC3)cc2)CC1)n1cc(C(F)(F)F)cn1 [Example 241] < 100 nM

Answer with the recorded IC50 for the compound listed here: NC(=O)c1cnn(C(=O)N2CCN(Cc3cccc(Oc4ccccc4)c3)CC2)c1 [Example 286] < 100 nM

Answer with the recorded IC50 for the compound listed here: CCN(Cc1ccc(C)cc1)C(=O)n1cc(Cl)cn1 [Example 133] < 100 nM

Answer with the recorded IC50 for the compound listed here: CCN(Cc1cccc(Cl)c1)C(=O)n1cc(C(F)(F)F)cn1 [Example 244] < 100 nM

Answer with the recorded IC50 for the compound listed here: O=C(N1CCN(Cc2cccc(C(F)(F)F)c2)CC1)n1cc(C(F)(F)F)cn1 [Example 272] < 100 nM

Answer with the recorded IC50 for the compound listed here: Cc1cc(-c2ccccc2)ccc1CN1CCN(C(=O)n2cc(C#N)cn2)CC1 [Example 138] < 100 nM

----------
Reported inhibition at 1 µM values for the following compounds.
Target: MAGL (Mus musculus, UniProt O35678)
Construct: Proteomes (mouse brain membrane fraction or cell lysates); from tissue; host or cells: mouse brain membrane fraction (or cell lysates, not specified)
Sequence (O35678 whole entry): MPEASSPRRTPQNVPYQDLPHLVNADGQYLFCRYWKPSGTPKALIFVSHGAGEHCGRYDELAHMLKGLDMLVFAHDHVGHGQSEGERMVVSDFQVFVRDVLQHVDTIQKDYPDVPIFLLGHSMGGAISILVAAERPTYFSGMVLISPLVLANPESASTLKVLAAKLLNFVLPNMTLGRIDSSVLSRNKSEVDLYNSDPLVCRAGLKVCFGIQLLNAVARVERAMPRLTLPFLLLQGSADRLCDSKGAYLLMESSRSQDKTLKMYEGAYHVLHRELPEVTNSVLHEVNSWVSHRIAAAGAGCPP
Assay: In vitro competitive activity-based protein profiling (gel-based, FP-Rh or HT-01 probe)
Type: biochemical
Details: 1 μM inhibitor

Known inhibition at 1 µM results, listed for orientation:
given smiles	target or system	readout type	value observed
N#Cc1cnn(C(=O)N2CCN(C(=O)c3ccccc3)CC2)c1	MAGL (Mus musculus, UniProt O35678)	inhibition at 1 µM	> 75%
CCN(Cc1ccc(OC)cc1)C(=O)n1cc(Cl)cn1	MAGL (Mus musculus, UniProt O35678)	inhibition at 1 µM	< 25%
O=C(N1CCN(Cc2ccc(OCc3ccccc3)cc2)CC1)n1cccn1	MAGL (Mus musculus, UniProt O35678)	inhibition at 1 µM	25 to 75%
O=C(N1CCN(c2ccc(Cl)cc2)CC1)n1cc(C(F)(F)F)cn1	MAGL (Mus musculus, UniProt O35678)	inhibition at 1 µM	> 75%
CS(=O)(=O)N1CCN(C(=O)n2cc(Cl)cn2)CC1	MAGL (Mus musculus, UniProt O35678)	inhibition at 1 µM	< 25%

// moving on: another record for inhibition at 1 µM
Answer with the recorded inhibition at 1 µM for the compound listed here: "Cc1cnn(C(=O)N2CCN(C(c3ccc(Cl)cc3)c3ccc(Cl)cc3)CC2)c1" > 75%

----------
Reported inhibition at 10 µM values for the following molecules.
Target: FAAH (Mus musculus)
Construct: Proteomes (mouse brain membrane fraction or cell lysates); from tissue; host or cells: mouse brain membrane fraction (or cell lysates, not specified)
Test: In vitro competitive activity-based protein profiling (gel-based, FP-Rh or HT-01 probe)
Type: biochemical
Conditions: 10 μM inhibitor; read-out: % Inhibition at 10 μM, B = FAAH

Name the value of inhibition at 10 µM reported for "O=C(N1CCCC1)n1cc(-c2ccc(-c3ccccc3)cc2)cn1" when tested on FAAH (Mus musculus). < 25%

Name the value of inhibition at 10 µM reported for "O=C(N1CCN(Cc2ccc(C(F)(F)F)cc2N2CCCC2)CC1)n1cc(-c2ccc(C(F)(F)F)cc2)cn1" when tested on FAAH (Mus musculus). < 25%

Name the value of inhibition at 10 µM reported for "O=C(c1cnn(C(=O)N2CCN(C(c3ccc(Cl)cc3)c3ccc(Cl)cc3)CC2)c1)N1CCOCC1" when tested on FAAH (Mus musculus). 25 to 75%

Name the value of inhibition at 10 µM reported for "O=C(N1CCN(C(c2ccc(Cl)cc2)c2ccc(Cl)cc2)CC1)n1cc(F)cn1" when tested on FAAH (Mus musculus). > 75%

Name the value of inhibition at 10 µM reported for "N#Cc1cnn(C(=O)N2CCCN(C(=O)c3ccccc3)CC2)c1" when tested on FAAH (Mus musculus). > 75%

Name the value of inhibition at 10 µM reported for "O=C(c1cnn(C(=O)N2CCN(Cc3cccnc3)CC2)c1)N1CCOCC1" when tested on FAAH (Mus musculus). < 25%

Name the value of inhibition at 10 µM reported for "O=C(N1CCN(c2cccc(N3CCCC3)c2)CC1)n1cc(C(F)(F)F)cn1" when tested on FAAH (Mus musculus). > 75%

Name the value of inhibition at 10 µM reported for "O=C(c1cnn(C(=O)N2CCN(Cc3ccncc3)CC2)c1)N1CCCC1" when tested on FAAH (Mus musculus). 25 to 75%

----------
Molecular target: MAGL (Mus musculus)
Construct: Proteomes (mouse brain membrane fraction or cell lysates); from tissue; host or cells: mouse brain membrane fraction (or cell lysates, not specified)
Test: In vitro competitive activity-based protein profiling (gel-based, FP-Rh or HT-01 probe)
Assay type: biochemical
Details: 1 μM inhibitor; gel-based competitive ABPP
Reported inhibition at 1 µM values for the following molecules.

molecule	target or system	inhibition at 1 µM
CCN(Cc1cccc(N2CCOCC2)c1)C(=O)n1cc(C)cn1 [Example 262]	MAGL (Mus musculus)	< 25%

Answer with the recorded inhibition at 1 µM for the molecule listed here: COc1cccc(CN2CCN(C(=O)n3cc(C(F)(F)F)cn3)CC2)c1 [Example 271] > 75%

Answer with the recorded inhibition at 1 µM for the molecule listed here: CCN(Cc1ccc(C)cc1)C(=O)n1cc(C#N)cn1 [Example 255] > 75%

Answer with the recorded inhibition at 1 µM for the molecule listed here: N#Cc1cnn(C(=O)N2CCN(Cc3ccc(C(=O)N4CCCCC4)cc3F)CC2)c1 [Example 284] > 75%

Answer with the recorded inhibition at 1 µM for the molecule listed here: O=C(c1cnn(C(=O)N2CCN(Cc3ccc(-c4ccccc4)cc3OCc3ccccc3)CC2)c1)N1CCCC1 [Example 291] > 75%

Answer with the recorded inhibition at 1 µM for the molecule listed here: CCN(Cc1ccc(OC)cc1)C(=O)n1cc(C#N)cn1 [Example 258] > 75%

Answer with the recorded inhibition at 1 µM for the molecule listed here: N#Cc1cnn(C(=O)N2CCN(Cc3ccc(C(=O)N4CCCCC4)cc3Cl)CC2)c1 [Example 282] > 75%

Answer with the recorded inhibition at 1 µM for the molecule listed here: N#Cc1cnn(C(=O)N2CCCN(Cc3cccc(OCc4ccccc4)c3)CC2)c1 [Example 300] > 75%

Answer with the recorded inhibition at 1 µM for the molecule listed here: CCN(Cc1cccc(C)c1)C(=O)n1cc(C)cn1 [Example 248] < 25%

----------
Target: PLA2G7 (Mus musculus)
Construct: Proteomes (mouse brain membrane fraction or cell lysates); from tissue; host or cells: mouse brain membrane fraction (or cell lysates, not specified)
Sequence (Q60963 22-440): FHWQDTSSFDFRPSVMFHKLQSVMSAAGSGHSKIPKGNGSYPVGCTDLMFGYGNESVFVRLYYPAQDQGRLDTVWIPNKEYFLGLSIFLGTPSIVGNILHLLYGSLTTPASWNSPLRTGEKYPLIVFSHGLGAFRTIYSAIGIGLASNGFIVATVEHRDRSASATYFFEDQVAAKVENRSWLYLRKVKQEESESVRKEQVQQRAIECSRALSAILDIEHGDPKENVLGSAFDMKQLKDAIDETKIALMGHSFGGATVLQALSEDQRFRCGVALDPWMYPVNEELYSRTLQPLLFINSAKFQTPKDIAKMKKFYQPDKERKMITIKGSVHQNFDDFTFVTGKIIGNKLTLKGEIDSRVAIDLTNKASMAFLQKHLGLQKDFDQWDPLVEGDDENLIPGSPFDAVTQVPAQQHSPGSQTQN
Assay: In vitro competitive activity-based protein profiling (gel-based, FP-Rh or HT-01 probe)
Type: biochemical
Details: mouse brain membrane fraction or cell lysates, 30 min preincubation at 37° C.
Description: In Vitro Competitive Activity-Based Protein Profiling. Proteomes (mouse brain membrane fraction or cell lysates) (50 μL, 1.0 mg/mL total protein concentration) were preincubated with varying concentrations of inhibitors at 37° C. […] Following gel imaging, serine hydrolase activity was determined by measuring fluorescent intensity of gel bands corresponding to MAGL, ABHD6, FAAH, and PLA2G7 using ImageJ 1.43u software.
Reported IC50 values for the following compounds.

Answer with the recorded IC50 for the compound listed here: "O=C(N1CCN(Cc2cccc(N3CCOCC3)c2)CC1)n1cc(C(F)(F)F)cn1" < 100 nM

Answer with the recorded IC50 for the compound listed here: "CCN(Cc1ccc(OC)cc1)C(=O)n1cc(C#N)cn1" > 1000 nM

Answer with the recorded IC50 for the compound listed here: "O=C(N1CCN(Cc2ccccc2)CC1)n1cc(Cl)cn1" > 1000 nM

Answer with the recorded IC50 for the compound listed here: "COc1ccc(N2CCN(C(=O)n3cc(C(F)(F)F)cn3)CC2)cc1" < 100 nM

Answer with the recorded IC50 for the compound listed here: "O=C(N1CCCN(Cc2ccccc2)CC1)n1cc(C(F)(F)F)cn1" > 1000 nM

Answer with the recorded IC50 for the compound listed here: "O=C(N1CCN(Cc2ccccc2Cl)CC1)n1cc(Cl)cn1" 100 to 1000 nM

Answer with the recorded IC50 for the compound listed here: "O=C(N1CCN(Cc2ccc(Cl)cc2)CC1)n1cc(Cl)cn1" > 1000 nM

Answer with the recorded IC50 for the compound listed here: "O=C(N1CCN(Cc2cccc(Cl)c2)CC1)n1cc(Cl)cn1" > 1000 nM

Answer with the recorded IC50 for the compound listed here: "NC(=O)c1cnn(C(=O)N2CCN(Cc3ccc(Cl)cc3)CC2)c1" > 1000 nM
